test system: A549 cells; assay: Cell proliferation assay (CellTiter-Glo), cells with K-Ras G12S mutation; assay type: cell-based; conditions: Homo sapiens, 500 nM to 5 μM (mixed units), read-out: Inhibition of A549 Cells (IC50)
Measure: IC50

Would you please look over these solved cases?
Compound: C[C@H]1CC[C@]2(CN(C(=O)n3cnc(C#N)n3)[C@@H]2C2(C)CC2)CN1c1nc(OC[C@@]23CCCN2C[C@H](F)C3)nc2c(F)c(-c3ccc(F)c4sc(N)c(C#N)c34)c(Cl)cc12
System Name: A549 cells
IC50: 500 to 5000 nM

Compound: CC1CC(N(C)C(=O)n2cnc(Cl)n2)CN1c1nc(OC[C@@]23CCCN2C[C@H](F)C3)nc2c(F)c(-c3ccc(F)c4sc(N)c(C#N)c34)c(Cl)cc12 (single isomer, unassigned)
System Name: A549 cells
IC50: 500 to 5000 nM

Next up:
Query CC1C2C(CCN2c2nc(OC[C@@]34CCCN3C[C@H](F)C4)nc3c(F)c(-c4ccc(F)c5sc(N)c(C#N)c45)c(Cl)cc23)CN1C(=O)n1cncn1 (single isomer, unassigned) yields IC50 of 500 to 5000 nM

----------
tested on: A549 cells; assay: Cell proliferation assay (CellTiter-Glo), cells with K-Ras G12S mutation; assay type: cell-based; conditions: Homo sapiens, 500 nM to 5 μM (mixed units), read-out: Inhibition of A549 Cells (IC50)
pIC50: −log10 of the molar value.
Quick reference: pIC50 of the listed items.

Would you please look over these solved cases?
Molecule: CN(C(=O)n1cncn1)C1CN(c2nc(OC[C@@]34CCCN3C[C@H](F)C4)nc3c(F)c(-c4ccc(F)c5sc(N)c(C#N)c45)c(Cl)cc23)CC12CC2 (some centres unmarked)
Observed Measurement: 5.30 to 6.30
--
Molecule: CC1CC2C(CCCN2c2nc(OC[C@@]34CCCN3C[C@H](F)C4)nc3c(F)c(-c4ccc(F)c5sc(N)c(C#N)c45)c(Cl)cc23)N1C(=O)n1cncn1 (some centres unmarked)
Observed Measurement: 5.30 to 6.30
--
Molecule: CC(C)[C@H]1N(C(=O)n2cnc(Cl)n2)C[C@]12CC[C@@H](C)N(c1nc(OC[C@@]34CCCN3C[C@H](F)C4)nc3c(F)c(-c4ccc(F)c5sc(N)c(C#N)c45)c(Cl)cc13)C2
Observed Measurement: 5.30 to 6.30
--
Molecule: N#CCCN(C(=O)n1cncn1)C1CCN(c2nc(OC[C@@]34CCCN3C[C@H](F)C4)nc3c(F)c(-c4ccc(F)c5sc(N)c(C#N)c45)c(Cl)cc23)C1 (some centres unmarked)
Observed Measurement: 5.30 to 6.30

Next up:
Query CCN(C(=O)n1cnc(Cl)n1)C1CCN(c2nc(OC[C@@]34CCCN3C[C@H](F)C4)nc3c(F)c(-c4ccc(F)c5sc(N)c(C#N)c45)c(Cl)cc23)C1C (some centres unmarked) yields pIC50 of 5.30 to 6.30

Attribution: patent US20250381243A1
